These entries and their values trace back to patent US10131652B2.

Measured Plant response rating, Galium, listed per entry.
System: galium (catchweed bedstraw, Galium aparine)
protocol: Test B postemergence plant response
Type: in vivo
applied conditions: Postemergence, 500 g ai/ha; 0 to 100 scale (0 no effect, 100 complete control)
value kind: Plant response rating, Galium

compound="Clc1cnc(Oc2ccccc2-c2cccs2)nc1 [Compound 182]" value_kind="Plant response rating, Galium" result=50
compound="FC(F)(F)c1cc(-c2ccccc2Oc2ncc(Cl)cn2)ncn1 [Compound 54]" value_kind="Plant response rating, Galium" result=100
compound="FC(F)c1cc(-c2c(Cl)cccc2Oc2ncc(Cl)cn2)no1 [Compound 179]" value_kind="Plant response rating, Galium" result=100
compound="FC(F)c1cc(-c2ccccc2Oc2ncc(Cl)cn2)on1 [Compound 53]" value_kind="Plant response rating, Galium" result=100
compound="Cn1nnnc1-c1ccccc1Oc1ncc(Cl)cn1 [Compound 47]" value_kind="Plant response rating, Galium" result=60
compound="Cn1ccnc1-c1ccccc1Oc1ncc(Cl)cn1 [Compound 151]" value_kind="Plant response rating, Galium" result=0
compound="FC(F)(F)c1cc(-c2c(Cl)cccc2Oc2ncc(Cl)cn2)no1 [Compound 169]" value_kind="Plant response rating, Galium" result=100

----------
Measured Plant response rating, Corn, listed per entry.
Test system: corn (Zea mays)
protocol: Test B pre-/postemergence plant response
Assay type: in vivo
applied conditions: Postemergence, 1000 g ai/ha; 0 to 100 scale (0 no effect, 100 complete control)
value kind: Plant response rating, Corn

compound="Clc1cnc(Oc2ccccc2-c2nnco2)nc1 [Compound 6]" result=0
compound="Clc1cnc(Oc2ccccc2-c2cscn2)nc1 [Compound 8]" result=0
compound="Fc1cnc(Oc2ccccc2-c2cc(Cl)sn2)nc1 [Compound 193]" result=10
compound="O=Cc1cc(-c2c(Br)cccc2Oc2ncc(Cl)cn2)no1 [Compound 195]" result=10
compound="FCc1cc(-c2c(F)cccc2Oc2ncc(Cl)cn2)no1 [Compound 57]" result=90
compound="FC(F)(F)Oc1cccc(-c2ccccc2Oc2ncc(Cl)cn2)c1 [Compound 40]" result=20
compound="ClCc1cc(-c2ccccc2Oc2ncc(Cl)cn2)no1 [Compound 34]" result=0
compound="Cc1cc(-c2ccccc2Oc2ncc(Cl)cn2)sn1 [Compound 171]" result=10

----------
Tested on: pigweed (Amaranthus retroflexus)
protocol: Test B pre-/postemergence plant response
Format: in vivo
applied conditions: Preemergence, 125 g ai/ha; 0 to 100 scale (0 no effect, 100 complete control)
Measured Pigweed plant response rating, listed per entry.
value kind: Pigweed plant response rating

compound="FC(F)(F)c1ccc(-c2c(Cl)cccc2Oc2ncc(Cl)cn2)nc1 [Compound 160]" quantitative_result=90
compound="CC(F)(F)c1cc(-c2ccccc2Oc2ncc(Cl)cn2)no1 [Compound 220]" quantitative_result=100
compound="N#Cc1cccc(Oc2ncc(Br)cn2)c1-c1ccc(Cl)cn1 [Compound 204]" quantitative_result=100

----------
System: soybean (Glycine max)
protocol: Test D pre-/postemergence plant response
Type: in vivo
applied conditions: Glycine max, pre-emergence; Preemergence; 16 g ai/ha; scale 0 to 100 (0 no effect, 100 complete control); read-out: Plant response rating, Soybean
Description: […]
value kind: plant injury at 16 g/ha (%)

molecule="FC(F)(F)c1cc(-c2ccccc2Oc2ncc(Cl)cn2)no1 [Compound 200]" system_tested="soybean (Glycine max)" quantitative_result=100
molecule="FCc1cc(-c2ccccc2Oc2ncc(Cl)cn2)no1 [Compound 32]" system_tested="soybean (Glycine max)" quantitative_result=15
molecule="Fc1cccc(Oc2ncc(Br)cn2)c1-c1cc(C(F)F)no1 [Compound 145]" system_tested="soybean (Glycine max)" quantitative_result=10
molecule="Fc1cccc(Oc2ncc(Cl)cn2)c1-c1cc(C(F)(F)F)on1 [Compound 168]" system_tested="soybean (Glycine max)" quantitative_result=5
molecule="FC(F)c1cc(-c2ccccc2Oc2ncc(Cl)cn2)on1 [Compound 53]" system_tested="soybean (Glycine max)" quantitative_result=0
molecule="FC(F)c1cc(-c2ccccc2Oc2ncc(Cl)cn2)no1 [Compound 35]" system_tested="soybean (Glycine max)" quantitative_result=30
